# self-cleavage listing for each entry below
B1: CPEB3 Ribozyme (parent)
chain: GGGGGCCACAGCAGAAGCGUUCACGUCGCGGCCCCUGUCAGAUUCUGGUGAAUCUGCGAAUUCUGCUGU

# Variants of: B1
# TEST_METHOD_NOTES: self-cleavage, relative activity (ratio to wild type); higher = more cleavage; co-transcriptional
The response must contain the number and no unit.

Which self-cleavage value is on record for G31A C35A ?
0.232

Fill in: self-cleavage of G28A A40C is ___
0.15

Tell me the measured self-cleavage of G5U U62G , please.
0.103

Fill blank: measured self-cleavage of the variant G5C G28A is ____.
0.134
